B1: OR4K15 (parent)
chain: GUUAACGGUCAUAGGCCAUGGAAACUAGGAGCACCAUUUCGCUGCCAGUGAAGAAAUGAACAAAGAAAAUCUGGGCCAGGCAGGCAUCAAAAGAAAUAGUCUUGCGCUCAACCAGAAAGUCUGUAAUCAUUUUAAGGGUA

variants of: B1; experiment: self-cleavage, relative activity (ratio to wild type); higher = more cleavage; in vitro, sequencing; the parent is a self-cleaving ribozyme
# self-cleavage listing for each entry below
# respond with the number and nothing more

See these solved cases before continuing.
GUUAUCGGUCAUAGGCCAUGGAAACUAGGAGCACCAGUUCGCUGCCAGUGAAGAAAUGAACAAAGAAAAUCUGGGCCAGGCAGGCAUCAAAAGAAAUAGUCUUGCGCUCAACCAGAAAGUCUGUAAUCAUUUUAAGGGUA [A5U U37G]; 1
GUUAACGGUCAUAGGCCAUGGAAACUAGGAGCACCAUUUCGCUGCCAGUGAAGAAAUGAACAAAGAAAAUCUGGGCCAGGCAGGCAUCAAAAGAAAUAGUCUUGCGCUCAACCAGAAAGUCUGUAAUCACCUUAAGGGUA [U130C U131C]; 1.01

# lookup: self-cleavage of GUCAACGGUCAUAGGCCAUGGAAACUAGGAGCACCAUUUCGCUGCCAGUGAAGAAAUGAACAAAGAAAAUCUGGGCCAGGCAGGCAUCAAAAGAAAUAGUCUUGCGCUCAACCAGAUAGUCUGUAAUCAUUUUAAGGGUA [U3C A117U]
1.02

Param item: GUUAACGGUCAUAGGCCAUGGAAACUAGGAGCACCAUUUCGCUGCCAGUGAAGAAAUGAACAAAGAAAAUCUGGGCCAGGCAGGCACCAAAAGAAAUAGUCUUGCGCUCAACCAGAAAGACUGUAAUCAUUUUAAGGGUA [U87C U120A]
0.99
